Form field: self-cleavage (one value per entry).
B1: HDV Ribozyme (parent)
chain: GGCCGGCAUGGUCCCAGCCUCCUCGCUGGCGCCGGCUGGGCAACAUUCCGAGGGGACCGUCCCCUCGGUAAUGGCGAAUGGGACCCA

- Variants of: B1
- MEASUREMENT_DESCRIPTION: self-cleavage, relative activity (ratio to wild type); higher = more cleavage; co-transcriptional
READOUT: self-cleavage

>>> df
    variant_designation  reported
 0            C36A A43U     0.198
 1            C22U A87G     0.737
 2            C36A G73U    0.0583
 3            C13G C84A         0
 4            U37A C75A    0.0707
 5            C18G G39U    0.0554
 6            U20G A42G     0.138
 7            G10C G55C     0.759
 8            A45U G74C    0.0923
 9            U20A G28U    0.0386
10            G40C A71G     0.162
11            G35C C48U     0.271
12             G6C G10A     0.147
13            C24G G55C    0.0656
14            G35A C44U     0.188
15            C21U G35A     0.108
16            C44G C86A     0.767
17            C36U C85A     0.732
18             A8U G67C     0.718
19            C33G A56C     0.113
20            G74U A77G     0.312
21            C64A G82A     0.282
